Assign z-score to each entry below.
assay: HepG2 cell viability effects, profiling panel, calcein-AM fluorescence, 48 h, basal (AID 1164); settings: higher = more signal; also: test concentration not given here

Query: Give its z-score value. Item: `CC(=O)OC[C@H]1O[C@H](C#CCCCc2ccccc2)C=C[C@@H]1OC(C)=O`
Response: -2.26

Query: Give its z-score value. Item: `CC(=O)OC[C@H]1O[C@@H](ON=C(C)CCN2CCc3nc(-c4ccccc4)c(-c4ccccc4)cc3C2)[C@H](OC(C)=O)[C@@H](OC(C)=O)[C@@H]1OC(C)=O`
Response: 0.69

Query: Give its z-score value. Item: `C=CC[C@@H]1C=C[C@H](ON=C[C@@H](OC)[C@H](C)C=CCC(=O)OC)[C@@H](CO)O1`
Response: 0.623

Query: Give its z-score value. Item: `COc1ccc(O[C@H]2C=C[C@@H](c3ccccc3)O[C@@H]2COC(=O)N2CCCCC2)cc1`
Response: 0.0678

Query: Give its z-score value. Item: `C=CC[C@@H]1C=C[C@H](ON=C2c3cc(OC)ccc3O[C@H](c3cccc(OC)c3)[C@H]2O)[C@@H](CO)O1`
Response: 0.925

Query: Give its z-score value. Item: Cc1cc2c(nc1C)CCCN2CC(C)ON=C1[C@H]2CCn3c(=O)n(-c4ccccc4)c(=O)n3[C@H]2[C@H](O)[C@@H]2O[C@H]12 (some centres not stated)
Response: -0.56

Query: Give its z-score value. Item: `CO[C@@H]1COC(=O)CCC[C@@H](C)[C@H](OC)COC(=O)[C@H](Cc2ccccc2)NC(=O)CC=C[C@H]1C`
Response: -0.829

###

Assign composite z-score to each entry below.
test: binders of probe aFSTL3 on microarray, primary screen, stem cell growth factor project, biochemical, small-molecule microarray, fluorescence 635/667 (AID 1064); conditions: higher = more signal;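 also: measures binding of the biotinylated anti-FSTL3 antibody to printed compounds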

Query: Give its composite z-score value. Item: `CCCC[C@H]1OB(O)C[C@H]2C1=C(C)C[C@H]1C(=O)N(C)C(=O)[C@H]12`
Response: -0.626

Query: Give its composite z-score value. Item: `O=C1[C@H]2[C@H]3[C@H](O)[C@H](O)CC(=NO[C@@H]4O[C@H](CO)[C@@H](O)[C@H](O)[C@H]4O)[C@H]3CC[C@H]2C(=O)N1Cc1ccccc1`
Response: -0.658

Query: Give its composite z-score value. Item: `CO[C@@H]1COC(=O)CCC[C@@H](C)[C@H](OC)COC(=O)CCC[C@H]1C`
Response: -0.298

Query: Give its composite z-score value. Item: `C=CC[C@@H]1C=C[C@H](ON=C(C)CCN2CCc3nc(CC)c(CC)cc3C2)[C@@H](CO)O1`
Response: 0.332

Query: Give its composite z-score value. Item: CCOC(=O)[C@H](Cc1ccccc1)NC(=O)CCC1CC(OC(=O)NCc2ccc3c(c2)OCO3)CC2(CCCC(COC(=O)NCc3ccccc3)O2)O1 (some centres not stated)
Response: -0.0824

Query: Give its composite z-score value. Item: `CC(=O)OC[C@H]1O[C@H](CCON=C(C)CCC(=O)OC[C@H]2O[C@H](C#Cc3ccccc3)C=C[C@@H]2Oc2ccc(C)cc2)C=C[C@@H]1OC(C)=O`
Response: -0.41

Query: Give its composite z-score value. Item: `CN(C)CCCNC(=O)[C@@H]1c2ccccc2C(=O)N(Cc2ccccc2)[C@H]1c1ccc(CO)cc1`
Response: 0.532

Origin of values: PubChem BioAssay
